Source of measurements: paper doi:10.1101/2025.08.03.668247

assay_system: T1, GST-Egl512-819 (Drosophila melanogaster, UniProt Q9W1K4 512-819)
T1 sequence: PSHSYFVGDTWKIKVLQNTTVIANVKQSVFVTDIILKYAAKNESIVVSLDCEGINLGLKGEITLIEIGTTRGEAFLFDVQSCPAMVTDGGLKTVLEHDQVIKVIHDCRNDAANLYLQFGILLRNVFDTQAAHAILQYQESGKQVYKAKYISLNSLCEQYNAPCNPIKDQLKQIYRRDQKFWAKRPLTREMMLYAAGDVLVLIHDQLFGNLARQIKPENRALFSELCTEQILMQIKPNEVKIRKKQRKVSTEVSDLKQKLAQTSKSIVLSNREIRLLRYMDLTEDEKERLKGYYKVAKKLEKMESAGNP
assay_name: competition; vs FAM-K10 TLS; FA: 20 mM HEPES-NaOH pH 7.5, 100 mM NaCl, 10% glycerol, 20 C, 10 nM FAM-RNA; competition: 150 nM Egl512-819 + 10 nM FAM-K10 TLS, same buffer
settings: protein: recombinant; tags: N-terminal GST (TEV site); blunt, with G-U wobbles
pIC50: −log10 of the molar value.

binder | pIC50
ARF1 dsRNA (dsRNA) RNA 1: UGAGUGCCAGAAGCUGCCUC RNA 2: GAGGCAGUUUCUGGUACUCA | 6.99
